# Measured on: UniProt:P10636
# Assay text: MCE Phenols Library screening, tau biosensor cell seeding assay (AvZ)
# Type: cell-based
# Test parameters: Z score, replicate 1
*1 amine or outer side, *2 acyl side, *3 side chain or, on linkers, in order; H or OH if unused. Where a SMILES comes first, the peptide text is derived from it. Bridges are numbered along the chain shown (N, C = ends). [ ]: non-standard residue; d: D form. hTyr(3S-OH,4S-OH,3'-OSO3H) = N[C@H](C(=O)O)[C@H](O)[C@@H](O)c1ccc(O)c(OS(=O)(=O)O)c1; Orn(4R-OH,5R-OH) = O=C([C@H](C[C@@H](O)[C@@H](O)N[*:3])N[*:1])[*:2]; Pro(3S-OH,4S-Me) = C[C@H]1CN[C@H](C(=O)O)[C@H]1O; Gln(3R-OH) = NC(=O)C[C@@H](O)[C@H](N)C(=O)O; Hyp = O=C(O)[C@@H]1C[C@@H](O)CN1
Please map values of Z repl 1 to classes as shown: I: < -0.7; II: ≥ -0.7 and < 0.3; III: ≥ 0.3

1) COc1cc2c(cc1O)-c1cc3ccc(OC)c(OC)c3c[n+]1CC2 ... III
2) COc1ccc2c(=O)c(-c3ccc(O)cc3)coc2c1 ... III
3) O=C(/C=C/c1ccc(O)c(O)c1)c1ccc(O)cc1O ... II

Which band does COc1ccc(C[C@@H]2c3cc(Oc4cc(C[C@@H]5c6cc(O)c(OC)cc6CCN5C)ccc4O)c(OC)cc3CCN2C)cc1 fall in?
II

Which band does CC(=O)c1ccc(O)c(C)c1 [4'-Hydroxy-3'-methylacetophenone] fall in?
II

Which band does COc1cc(C(=O)O)cc(OC)c1O fall in?
II

Which band does C[C@@H]1O[C@@H](Oc2cc(O)c3c(=O)c(O)c(-c4ccc(O)c(O)c4)oc3c2)[C@H](O)[C@H](O)[C@H]1O [Vincetoxicoside B] fall in?
I

Which band does O=C(C=Cc1ccc(O)c(O)c1)OC1CC(O)(C(=O)O)CC(O)C1OC(=O)C=Cc1ccc(O)c(O)c1 (centres unmarked) fall in?
I

Which band does C[C@@H](O)[C@@H]1NC(=O)[C@@H](N)C[C@@H](O)[C@@H](O)NC(=O)[C@@H]2[C@@H](O)[C@@H](C)CN2C(=O)[C@H]([C@H](O)CC(N)=O)NC(=O)[C@H]([C@H](O)[C@@H](O)c2ccc(O)c(OS(=O)(=O)O)c2)NC(=O)[C@@H]2C[C@@H](O)CN2C1=O [FR179642] (H-[Orn(4R-OH,5R-OH)]T[Hyp][hTyr(3S-OH,4S-OH,3'-OSO3H)][Gln(3R-OH)][Pro(3S-OH,4S-Me)]; lactam 1-C) fall in?
III

###

# Measured on: UniProt P10636
# Assay text: Tau biosensor dose titrations (HEK293T tau biosensor cells seeded with AD brain homogenate);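 further: AD brain homogenate preincubated 16 h with compound, then transfected into tau biosensor cells, seeding read as tau puncta counted by imaging, normalized to cell confluence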
# Assay type: cell-based
# Test parameters: AD brain homogenate with ptau […]; read-out: IC50 high tau load
Recorded metric: pIC50
Please note pIC50 is a logarithmic value: minus log10 of concentration in mol/L. Answer with that number alone.

Can you look up the measured pIC50 of NCCc1ccc(O)c(O)c1 [DA, dopamine, reference compound] for me?
5.01

###

# Measured on: tau (Homo sapiens)
# Sequence (P10636 623-695 limits assumed): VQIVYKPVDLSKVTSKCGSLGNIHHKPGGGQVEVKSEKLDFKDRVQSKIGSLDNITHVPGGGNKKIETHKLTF
# Assay text: MCE Phenols Library screening, tau biosensor cell seeding assay (AvZ)
# Assay type: cell-based
# Test parameters: Z score, replicate 1
Reported Z repl 1 by item:
Form field (numeric): enter value without unit.

# returns recorded Z repl 1 (system: tau (Homo sapiens)) for COc1cc(C)c2c(=O)cc(C[C@@H](C)O)oc2c1[C@@H]1O[C@H](CO)[C@@H](O)[C@H](O)[C@H]1OC(=O)/C=C/c1ccc(O)cc1
-0.796
